CONDITION_SUMMARY: 333.15 K; Liquid; Vibrating tube method
Could you please report measured mass density for the items listed next?
Answer in kg/m3, number only, no unit symbol.

Item: Cc1cccc(C)c1 | mass density: 829.305

Measured mass density, c1ccccc1 : 835.696

Quick note, mass density for Cc1ccccc1 landed at 830.467

Field mass density (entry O=S1(=O)CCCC1 ) reads 1231.12

get_value(item= CCCCCCCCC , readout=mass density) returns 685.961

----------
CONDITION_SUMMARY: 333.15 K; Liquid; Closed cell (Static) method
READOUT: vapor or sublimation pressure (kPa)
Unit kPa implied. Number only.

Documented vapor or sublimation pressure of c1ccccc1 : 52.45

So for CCCCCCCCC , the logged vapor or sublimation pressure turned out to be 3.97

Query O=S1(=O)CCCC1 yields vapor or sublimation pressure of 0.01

Looking up Cc1ccccc1 , I found its vapor or sublimation pressure recorded as 18.62

Form field vapor or sublimation pressure, entry Cc1cccc(C)c1 : 6.59

----------
Please respond with reported mass density for every item in the list.
CONDITION_SUMMARY: 333.15 K; Gas; Vibrating tube method
Numbers after ± are expanded uncertainties.

// field: mass density; key: CCCCCCCCC [nonane] ; value = 0.1868 kg/m3

Kindly note the recorded mass density for c1ccccc1 [benzene] , which is 1.5172 ± 0.1 kg/m3

Measured mass density of Cc1cccc(C)c1 [1,3-dimethylbenzene] : 0.252 ± 0.1 kg/m3

Reported mass density for Cc1ccccc1 [toluene] was 0.6829 ± 0.1 kg/m3

----------
CONDITION_SUMMARY: 353.15 K; Liquid; Vibrating tube method
Lab note: anything with mass density at or over 800 kg/m3 counts as criterion met; the rest go in criterion not met.

Q: // inclusive: mass density at least 800 kg/m3? input: CCCCCCCCC
Result: criterion not met

Q: Decide: mass density of O=S1(=O)CCCC1 >= 800 kg/m3?
Result: criterion met

----------
CONDITION_SUMMARY: 353.15 K; Liquid; Vibrating tube method
± gives the expanded uncertainty stated by the source.
Can you tell me mass density for the items I'm about to list?

# molecule c1ccccc1 [benzene] ; its mass density = 814.086 ± 0.16 kg/m3

The molecule identified as Cc1cccc(C)c1 [1,3-dimethylbenzene] registered its mass density at 811.602 ± 0.24 kg/m3

Given item Cc1ccccc1 [toluene] , the value recorded as its mass density is 810.89 ± 0.24 kg/m3

Origin of measurements: the NIST ThermoML archive (doi:10.1016/j.fluid.2009.09.024)
